So I've got a bunch of molecules here, and I need their normalized growth values.
Experiment: chemical genetic growth profiling, strain panel (AID 1159580);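 also: tested at 20 µM; growth read once vehicle control cultures reached saturation at 30 °C; 1 = growth at the plate median or of vehicle wells; lower values mean less growth of the strain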
Conditions: S. cerevisiae deletion strains, growth OD, locus YBL061C, strain skt5, active compounds read low
The campaign covered roughly 5,500 compounds. About 2,000 (36%) were called active. Inconclusive results (about 18%) are left out. The list shows a part of the results. *1 amine or outer side, *2 acyl side, *3 side chain or, on linkers, in order; H or OH if unused. Where a SMILES comes first, the peptide text is derived from it. Bridges are numbered along the chain shown (N, C = ends). Side-chain parts run from the residue outwards. [ ]: non-standard residue; d: D form. The star is where a group is joined. ξ: configuration not given here. ΔAla(E,3-NHCONH2) = NC(=O)N/C=C(/N)C(=O)O; X2 = NC1=NCCC(C(N[*:1])C(=O)[*:2])N1; X1 = CCC(C)C(N)C1=NC(C(=O)*)CS1; ξβ3hOrn = NCCCC(N)CC(=O)*; Orn = NCCC[CH](N)C(=O)O; Dap = NC[CH](N)C(=O)O
Numbers only.

CCCCc1nc(Cl)c(CO)n1Cc1ccc(-c2ccccc2-c2nn[nH]n2)cc1    0.99
NCCc1cc(O)c(O)cc1O    0.948
CCC(C)C(N)C1=NC(C(=O)NC(CC(C)C)C(=O)NC(CCC(=O)O)C(=O)NC(C(=O)NCCCCC2NC(=O)C(CC(N)=O)NC(=O)C(CC(=O)O)NC(=O)C(Cc3cnc[nH]3)NC(=O)C(Cc3ccccc3)NC(=O)C(C(C)CC)NC(=O)C(CCCN)NC2=O)C(C)CC)CS1 (stereo not drawn) (cyclo(DNK([Ile-Glu-Leu-X1])[Orn]IFH); configuration not given here)    1

Record normalized growth for all entries; do not skip any.
1. NCCCC(N)CC(=O)NCC1NC(=O)C(CO)NC(=O)C(N)CNC(=O)C(C2CCN=C(N)N2)NC(=O)/C(=C\NC(N)=O)NC1=O (stereo not drawn) (H-[Dap]S[Dap](ξβ3hOrn)[ΔAla(E,3-NHCONH2)][X2]; lactam 1-C; configuration not given here)
2. CN(C)C(=N)N=C(N)N

Result:
1: 1.02; 2: 1.03

----------
Assay: chemical genetic growth profiling, strain panel (AID 1159580)
Details: S. cerevisiae deletion strains, growth OD, locus YPL055C, strain LGE1, active compounds read low
About 2,000 (36%) of roughly 5,500 compounds were called active. Roughly 18% stayed inconclusive and do not appear here. Some of the results follow.
The threshold is 1. Values of normalized growth beneath it are tagged Fulfilled; values meeting or exceeding it are tagged Not fulfilled.

Known results for compounds:
CC(=O)[O][Hg][c]1ccccc1    Fulfilled
COc1cc(-c2coc3cc(O[C@@H]4O[C@H](CO)[C@@H](O)[C@H](O)[C@H]4O)c(OC)c(O)c3c2=O)cc(O)c1OC    Not fulfilled
Cc1ccc(OCc2nnc(SCC(=O)c3ccc(F)cc3)n2-c2ccccc2)c2c1CCC2    Fulfilled

Query: Criterion: normalized growth strictly below 1. Is it met by NCC1OC(OC2C(CO)OC(OC3C(O)C(N)CC(N)C3OC3OC(CO)C(O)CC3N)C2O)C(N)C(O)C1OC1OC(CO)C(O)C(O)C1O (stereo not drawn) ?
Result: Fulfilled

Query: Criterion: normalized growth strictly below 1. Is it met by CC(C)(C)c1ccc(-c2cc(N)c(C(N)=O)s2)cc1 ?
Result: Fulfilled

Query: Criterion: normalized growth strictly below 1. Is it met by CSc1nc(N)nc(N2CCCCC2)n1 ?
Result: Fulfilled

----------
Assay: chemical genetic growth profiling, strain panel (AID 1159580);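 also: tested at 20 µM; growth read once vehicle control cultures reached saturation at 30 °C; 1 = growth at the plate median or of vehicle wells; lower values mean less growth of the strain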
Conditions: S. cerevisiae deletion strains, growth OD, locus YCL069W, strain vba3, active compounds read low
Among all 5,500 compounds or so, about 2,000 (36%) were called active. Inconclusive results (about 18%) are left out. Some of the results follow.
The threshold is 1. Values of normalized growth beneath it are tagged t; values meeting or exceeding it are tagged f.

Known results for compounds:
O=C(OC[C@H]1O[C@H](OC(=O)c2cc(O)c(O)c(OC(=O)c3cc(O)c(O)c(O)c3)c2)[C@H](OC(=O)c2cc(O)c(O)c(OC(=O)c3cc(O)c(O)c(O)c3)c2)[C@@H](OC(=O)c2cc(O)c(O)c(OC(=O)c3cc(O)c(O)c(O)c3)c2)[C@@H]1OC(=O)c1cc(O)c(O)c(OC(=O)c2cc(O)c(O)c(O)c2)c1)c1cc(O)c(O)c(OC(=O)c2cc(O)c(O)c(O)c2)c1    t
CN1CCN(CC(=O)N2c3ccccc3C(=O)Nc3cccnc32)CC1    f
CCNc1nc(Cl)nc(NCC)n1    t
CNS(=O)(=O)Cc1ccc2[nH]cc(CCN(C)C)c2c1    f

Query: Criterion: normalized growth strictly below 1. Is it met by CN1CCN(CCCN2c3ccccc3Sc3ccc(C(F)(F)F)cc32)CC1 ?
Result: t

----------
So I've got a bunch of molecules here, and I need their normalized growth values.
Experiment: chemical genetic growth profiling, strain panel (AID 1159580);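 also: tested at 20 µM; growth read once vehicle control cultures reached saturation at 30 °C; 1 = growth at the plate median or of vehicle wells; lower values mean less growth of the strain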
Details: S. cerevisiae deletion strains, growth OD, locus YJL157C, strain FAR1, active compounds read low
The whole screen tested about 5,500 compounds, of which about 2,000 (36%) were called active. About 18% were inconclusive and are not listed. The list shows a part of the results.
One number for each entry.

C/C(=N/NC(=O)c1ccc(C(C)(C)C)cc1)c1ccccc1O    0.981
O=C(c1cc2c(s1)-c1ccccc1CC2)N1CCN(Cc2ccccc2)CC1    0.976
CCOC(=O)c1cnc2c(c(C)nn2C)c1Sc1nnc(SC)s1    0.739

Record normalized growth for all entries; do not skip any.
1. CSc1nnc(COc2ccc(C)c3c2CCC3)n1-c1ccccc1
2. Cc1ccc(OCc2n[nH]c(=S)n2Cc2ccccc2)c2c1CCC2

Result:
1: 0.968; 2: 0.803

----------
Experiment: chemical genetic growth profiling, strain panel (AID 1159580);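 also: tested at 20 µM; growth read once vehicle control cultures reached saturation at 30 °C; 1 = growth at the plate median or of vehicle wells; lower values mean less growth of the strain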
Conditions: S. cerevisiae deletion strains, growth OD, locus YDR150W, strain NUM1, active compounds read low
The whole screen tested about 5,500 compounds, of which about 2,000 (36%) were called active. Roughly 18% stayed inconclusive and do not appear here. Some of the results follow. Where a SMILES comes first, the peptide text is derived from it. Side-chain parts run from the residue outwards. [ ]: non-standard residue; d: D form. The star is where a group is joined. X1 = CCC(C)C(N)C1=NC(C(=O)*)CS1; Orn = NCCC[CH](N)C(=O)O
So I've got a bunch of molecules here, and I need their normalized growth values.

Some molecules with recorded normalized growth:
NC1CC1c1ccccc1 (configuration not stated)    1.02 (inactive)
CC(=O)[O][Hg][c]1ccccc1    0.0584 (active)

Record normalized growth for all entries; do not skip any.
1. CC(=O)O[C@@H]1CC[C@]2(C)C3CC[C@]4(C)C(=O)CCC4C3CC[C@H]2C1 (some centres not stated)
2. CCC(C)C(N)C1=NC(C(=O)NC(CC(C)C)C(=O)NC(CCC(=O)O)C(=O)NC(C(=O)NCCCCC2NC(=O)C(CC(N)=O)NC(=O)C(CC(=O)O)NC(=O)C(Cc3cnc[nH]3)NC(=O)C(Cc3ccccc3)NC(=O)C(C(C)CC)NC(=O)C(CCCN)NC2=O)C(C)CC)CS1 (stereo not drawn) (cyclo(DNK([Ile-Glu-Leu-X1])[Orn]IFH); configuration not given here)
3. CCCCOC(=O)NS(=O)(=O)c1sc(CC(C)C)cc1-c1ccc(Cn2c(CC)nc3c(C)cc(C)nc32)cc1
4. CC(C)CC1NC(=O)C(CCCN)NC(=O)C(C(C)C)NC(=O)C2CCCN2C(=O)C(Cc2ccccc2)NC(=O)C(CC(C)C)NC(=O)C(CCCN)NC(=O)C(C(C)C)NC(=O)C2CCCN2C(=O)C(Cc2ccccc2)NC1=O (configuration not stated) (cyclo(FPV[Orn]LFPV[Orn]L); configuration not given here)
5. NC[C@H]1O[C@H](O[C@H]2C(O[C@@H]3O[C@H](CO)[C@@H](O)[C@H]3O)[C@@H](O)[C@H](N)C[C@@H]2N)[C@H](N)[C@@H](O)[C@@H]1O (some centres not stated)
6. c1cc(C2CCCCC2)ccc1C1CCCCC1
7. CN[C@@H]1[C@@H](O[C@H]2O[C@H](CO)[C@@H](N)[C@H](O)[C@H]2O)O[C@H]2C[C@@H](N)[C@H](O[C@H]3[C@H](O)[C@@H](O)[C@H](N)C[C@@H]3N)O[C@@H]2[C@@H]1O

Result:
["0.992 (inactive)", "1 (inactive)", "1.01 (inactive)", "1.02 (inactive)", "1 (inactive)", "0.958 (inactive)", "1.01 (inactive)"]

Record normalized growth for all entries; do not skip any.
1. CC(=O)O[C@H]1CC[C@]2(C)C3CC[C@@]4(C)C(CC5O[C@@]6(CCC(C)CO6)[C@@H](C)C54)C3CC[C@H]2C1 (some centres not stated)
2. COc1ccc(C2C(=O)c3ccccc3C2=O)cc1
3. Cc1ccc(N=Nc2c(C)[nH]n(C)c2=O)cc1

Result:
1 (inactive)
0.988 (inactive)
0.92 (inactive)
